- Tested System: SIRT1 (Homo sapiens, UniProt Q96EB6)
- Sequence (Q96EB6 whole entry): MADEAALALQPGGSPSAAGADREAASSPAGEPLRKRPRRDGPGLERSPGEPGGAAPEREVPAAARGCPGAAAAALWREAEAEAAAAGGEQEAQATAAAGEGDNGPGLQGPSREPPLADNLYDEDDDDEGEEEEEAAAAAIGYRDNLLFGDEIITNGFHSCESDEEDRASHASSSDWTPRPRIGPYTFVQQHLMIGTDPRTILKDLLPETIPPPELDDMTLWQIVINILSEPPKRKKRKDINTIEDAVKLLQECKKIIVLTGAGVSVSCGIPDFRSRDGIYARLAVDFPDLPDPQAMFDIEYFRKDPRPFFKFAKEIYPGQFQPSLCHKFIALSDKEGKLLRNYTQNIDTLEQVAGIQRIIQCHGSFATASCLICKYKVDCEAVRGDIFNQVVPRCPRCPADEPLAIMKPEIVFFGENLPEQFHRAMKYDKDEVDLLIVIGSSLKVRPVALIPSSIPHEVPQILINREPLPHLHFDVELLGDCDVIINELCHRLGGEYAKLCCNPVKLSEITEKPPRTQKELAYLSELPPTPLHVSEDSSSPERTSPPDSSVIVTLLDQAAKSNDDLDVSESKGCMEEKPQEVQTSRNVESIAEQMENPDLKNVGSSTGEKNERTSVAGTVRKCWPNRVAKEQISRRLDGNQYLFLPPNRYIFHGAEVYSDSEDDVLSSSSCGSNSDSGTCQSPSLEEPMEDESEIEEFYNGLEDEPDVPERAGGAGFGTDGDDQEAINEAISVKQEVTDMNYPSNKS
- Experiment Notes: TAMRA based mass spectrometry assay of SIRT1 activity
- Type: biochemical
- Measurement Context: TAMRA assay; percent maximum fold activation; read-out: TAMRA % Fold Act
Emax values, listed per item

Consider the worked cases shown below.
Cc1cccnc1C(=O)Nc1cnn2ccc(-c3ccccc3C(F)(F)F)nc12: ≥ 350%
Cc1ccc(NC(=O)c2c(C)nn3ccc(-c4ccccc4C(F)(F)F)nc23)cn1: ≥ 350%
Cc1nn2ccc(-c3ccccc3C(F)(F)F)nc2c1C(=O)Nc1nccs1: ≥ 350%
CC(CO)(CO)Oc1nccc(NC(=O)c2cnc3ccc(-c4ccccc4C(F)(F)F)nn23)n1: < 350%
O=C(Nc1ccccn1)c1cnc2ccc(-c3ccccc3OC[C@H](O)CO)nn12: ≥ 350%

Now let's try a different one.
IN: Entry Cc1cc(OCC(O)CO)nc(NC(=O)c2cnc3ccc(-c4ccccc4Cl)nn23)n1 (centres unmarked) has what Emax?
OUT: < 350%

Cited source: patent US9957271B2
